test: yeast display, Sf9 membrane polyspecificity reagent, FACS + sequencing; frameworks hold sequencing errors
property-name: polyreactivity (PSR sort gate)

# example entries with known answers
{"columns": ["sequence-record", "polyreactivity (PSR sort gate)"],
 "data": [
  ["QVQLVESGGGLVQAGGSLRLSCAASGFIIKVYAMGWYRQAPGKERELVAAITWSGGSTYYADSVKGRFTISRDNAKNTVYLQMNSLKPEDTAVYYCAADTYYPDWITYPQGDFDYWGQGTQVTVSS", "low polyreactivity"],
  ["QVQLVESGGGFVQAGGSLRLSCAASGSIFDQYAMGWSRQAPGKERELVAGISSSGSTYADSVKGRFTISRDNAKNTVYLQMNSLKPEDTAVYSCAKDYGVLGGGTGSDRMDYWGQGSQVTVSS", "low polyreactivity"],
  ["QVQLVESGGGLVQAGGSLRLSCAASGRIFYPYAMGWYRQAPGKERELVAAITGRGGSTYYADSVKGRFTISRDNAKNTVYLQMNSLKPEDTAVYYCATVQSGRVRTYDYWGQGTQVTVSS", "high polyreactivity"],
  ["QVQLVESGGGLVQAGGSLRLSCAASGFIFDIYAMGWYRQAPGKERELVASINWSGGDSTSYADSVKGRFTISRVNAKNTVSLQMNILKPEDTAVYYCIAEYWYYAGGYPDEYDYWGQGPQVTVSS", "low polyreactivity"],
  ["QDQLVESGGGLVQAGGSLRLSCAASGSIFLKYVMGVYRPEPGKERELVASISSGGGTYYADSVKGRFTISRDNAKNTVYLQMNILKPEDTAVYYCARRPYRGSYAFDYWGQGTQVTVSS", "low polyreactivity"]
]}

(Q) Sample QVQLVESGGGLVQAGGSLRLSCAASGSTFPLNAMAWYRHAPGKERELVAAITWSGANTYYADSVKGRFTISRDNAKNTVYLQMNSLKPEDTAVYYCAAGSYAGFAVIGYYYWGQGTQVTVSS — what was its polyreactivity (PSR sort gate)?
(A) low polyreactivity

(Q) Report polyreactivity (PSR sort gate) for QVQLVESGGGLVQAGGSLRLSCAASGSTFGGNVMGWYRPAPGKERELVATISRSGGSTYYADSVKGRFTISRDNAKNTVYLQMNSLKPEDTAVYYCAARTLHYSPSTFYRYQYDYWGQGTQVTVSS please.
(A) high polyreactivity

(Q) Name the recorded polyreactivity (PSR sort gate) for QVQLVESGGRLVQAGGSLRLSCAASGSTFIQNAMGWSRQAPGKDRELVAAITSGGGTNYADSVKGRFTISRDNAKNTVYLQMNSLKPEDTAVYYCAAEPFNYDDFWFGWEYLYDYWGQATQVTVSS .
(A) low polyreactivity

(Q) Which polyreactivity (PSR sort gate) reading was recorded for the sequence QVQLVESGGGLVQAGGSLRLSCAASGSNFFLYAMGWYRQAPGKEREFVAAITGTADSTYYADSVKGRFTISRDDAKNTVYLQMNSLKPEDTAVYYCATDYWSSVKLDDYWGQGTQVTVSS ?
(A) low polyreactivity
